molecular target: Recombinant human DDR2 (Homo sapiens (Human)); test: LanthaScreen Eu Kinase Binding Assay, DDR2; settings: DDR2 1.75 nM (aa427-855, GST tag), Kinase Tracer 178 10 nM
Sequence (Q16832 427-855): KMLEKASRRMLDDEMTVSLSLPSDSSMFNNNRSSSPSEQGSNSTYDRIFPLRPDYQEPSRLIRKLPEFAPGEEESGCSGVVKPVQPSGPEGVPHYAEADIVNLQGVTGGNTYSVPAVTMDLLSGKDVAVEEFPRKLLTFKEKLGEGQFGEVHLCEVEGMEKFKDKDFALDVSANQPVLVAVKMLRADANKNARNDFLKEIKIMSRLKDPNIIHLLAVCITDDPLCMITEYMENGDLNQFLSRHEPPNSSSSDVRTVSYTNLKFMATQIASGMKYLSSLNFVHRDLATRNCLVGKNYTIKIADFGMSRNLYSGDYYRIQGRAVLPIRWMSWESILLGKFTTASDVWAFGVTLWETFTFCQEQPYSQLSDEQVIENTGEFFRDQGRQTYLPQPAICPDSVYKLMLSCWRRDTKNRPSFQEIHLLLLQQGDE
assay_endpoint: DDR2 pIC50

Past entries and their recorded results:
compound=Cc1n[nH]c2cc(Nc3cccc4c3C(=O)N(CC(=O)NCC(F)(F)F)C4)cc(F)c12 target_or_system="Recombinant human DDR2 (Homo sapiens (Human))" result="A (pIC50>8)"
compound="Cc1n[nH]c2cc(Nc3cccc4c3C(=O)N(CC(=O)NC3CC3(F)F)C4)ccc12 (centres unmarked)" target_or_system="Recombinant human DDR2 (Homo sapiens (Human))" result="A (pIC50>8)"
compound=Cc1n[nH]c2cc(Nc3cccc4c3C(=O)N(CC(=O)Nc3cnoc3)C4)ccc12 target_or_system="Recombinant human DDR2 (Homo sapiens (Human))" result="A (pIC50>8)"
compound=Cc1n[nH]c2nc(Nc3cccc4c3C(=O)N(CC(=O)NCC(F)(F)F)C4)ccc12 target_or_system="Recombinant human DDR2 (Homo sapiens (Human))" result="D (pIC50≤6)"
compound=Cc1n[nH]c2cc(Nc3cccc4c3C(=O)N(CC(=O)N[C@@H](C)C(F)(F)F)C4)cc(F)c12 target_or_system="Recombinant human DDR2 (Homo sapiens (Human))" result="A (pIC50>8)"
compound=Cn1ncc2cc(Nc3cccc4c3C(=O)N(CC(=O)NCC(F)(F)F)C4(F)F)ccc21 target_or_system="Recombinant human DDR2 (Homo sapiens (Human))" result="D (pIC50≤6)"
compound=Cc1n[nH]c2cc(Nc3cccc4c3C(=O)N(CC(=O)N3CCC[C@H]3C(F)F)C4)ccc12 target_or_system="Recombinant human DDR2 (Homo sapiens (Human))" result="A (pIC50>8)"

Q. Value lookup for DDR2 pIC50; key = Cc1cc(Nc2cccc3c2C(=O)N(CC(=O)NCC(F)(F)F)C3)cc2cn[nH]c12
A. A (pIC50>8)
